Provenance of the data: patent US20210290648A1

As shown below, each of these compounds has a reported FICI value.
# System: PA 264
# Assay summary: Checkerboard combination study / MIC
# Format: cell-based, Pseudomonas aeruginosa
# Experimental conditions: antibiotic + compound 2
Observed property: FICI

{"Record smiles": "CCN1CCN(C(=O)N[C@@H](C(=O)N[C@@H]2C(=O)N3[C@@H]2SC(C)(C)[C@@H]3C(=O)O)c2ccccc2)C(=O)C1=O", "Assay result": "<0.52"}
{"Record smiles": "CO/N=C(\\C(=O)N[C@@H]1C(=O)N2C(C(=O)O)=C(COC(C)=O)CS[C@H]12)c1csc(N)n1", "Assay result": "<0.31"}
{"Record smiles": "C[C@@H](O)[C@H]1C(=O)N2C(C(=O)O)=C(S[C@@H]3CN[C@H](CNS(N)(=O)=O)C3)[C@H](C)[C@H]12", "Assay result": "<0.51"}
{"Record smiles": "C[C@H]1[C@H](NC(=O)/C(=N\\OC(C)(C)C(=O)O)c2csc(N)n2)C(=O)N1S(=O)(=O)O", "Assay result": "<0.28"}
{"Record smiles": "C[C@@H](O)[C@H]1C(=O)N2C(C(=O)O)=C(S[C@@H]3CN[C@H](C(=O)N(C)C)C3)[C@H](C)[C@H]12", "Assay result": "<0.05"}
{"Record smiles": "CC(C)(O/N=C(\\C(=O)N[C@@H]1C(=O)N2C(C(=O)[O-])=C(C[n+]3ccccc3)CS[C@H]12)c1csc(N)n1)C(=O)O", "Assay result": "<0.28"}
